Cited source: paper doi:10.1101/2023.02.23.529712

# assayed.target: recombinant rat arrestin-2 (rat), P29066
# Sequence (P29066 whole entry): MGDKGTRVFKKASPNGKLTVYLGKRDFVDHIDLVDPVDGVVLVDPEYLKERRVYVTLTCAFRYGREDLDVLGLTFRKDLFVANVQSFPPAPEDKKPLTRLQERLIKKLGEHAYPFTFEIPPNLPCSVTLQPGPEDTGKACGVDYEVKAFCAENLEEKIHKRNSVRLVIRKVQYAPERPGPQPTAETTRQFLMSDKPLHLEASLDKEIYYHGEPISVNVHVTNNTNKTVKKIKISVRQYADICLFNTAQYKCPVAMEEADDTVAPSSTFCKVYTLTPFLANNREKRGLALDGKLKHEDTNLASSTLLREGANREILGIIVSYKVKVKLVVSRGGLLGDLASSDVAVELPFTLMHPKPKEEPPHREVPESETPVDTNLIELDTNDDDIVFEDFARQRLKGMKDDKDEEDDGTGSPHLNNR
# procedure.summary: MST + fluorescence polarisation
No end group written: not given here.
metric: pKd
// pKd is dimensionless: -log10 of concentration (M)

Task item: Please give the measured pKd for this binder: GFEPFSQRKLEELKDESSRAWTEEEINE (domain or fragment, not fully specified) [phosphomimetic GHSR C-terminus, Q92847 339-366]
Reply: 3.70
